# protocol.text: Cytotoxicity against human MT4 cells assessed as cell viability after 5 days by MTT assay
# Assay type: cell-based
Recorded CC50 at 120 h by entry
Quick reminder: number only, in µM, skip the unit.

>>> df
                            chemical_string  observed_value
0  O=C(O)CNC(=O)c1ccccc1SSc1ccccc1C(=O)NCC(=O)O            58.1
1  COC(=O)[C@@H]1CCCN1C(=O)c1ccccc1[Se][Se]c1ccccc1C(=O)N1CCC[C@H]1C(=O)OC            10.1
2  CCOC(=O)CC[C@H](NC(=O)c1ccccc1[Se][Se]c1ccccc1C(=O)N[C@@H](CCC(=O)OCC)C(=O)OCC)C(=O)OCC             2.8
3  CC(C)[C@H](NC(=O)c1ccccc1[Se][Se]c1ccccc1C(=O)N[C@H](C(=O)O)C(C)C)C(=O)O             136

Reported CC50 at 120 h for O=C(O)CNC(=O)c1ccccc1[Se][Se]c1ccccc1C(=O)NCC(=O)O was 117

Reported CC50 at 120 h for COC(=O)[C@H](C)NC(=O)c1ccccc1[Se][Se]c1ccccc1C(=O)N[C@@H](C)C(=O)OC was 15.8

Reported CC50 at 120 h for NS(=O)(=O)c1ccc(OC(=O)c2ccccc2[Se][Se]c2ccccc2C(=O)Oc2ccc(S(N)(=O)=O)cc2)cc1 was 18.6

###

Recorded CC50 at 120 h by entry
# protocol.text: Cytotoxicity against human MT4 cells assessed as cell viability after 5 days by MTT assay
# Type: cell-based
Quick reminder: number only, in µM, skip the unit.

Some entries whose results are on file:
>>> df
                            chemical_string  observed_value
0  O=C(O)C[C@H](NC(=O)c1ccccc1[Se][Se]c1ccccc1C(=O)N[C@@H](CC(=O)O)C(=O)O)C(=O)O             151
1  C[C@H](NC(=O)c1ccccc1[Se][Se]c1ccccc1C(=O)N[C@@H](C)C(=O)O)C(=O)O             138
2  NS(=O)(=O)c1ccc(NC(=O)c2cccnc2[Se][Se]c2ncccc2C(=O)Nc2ccc(S(N)(=O)=O)cc2)cc1            19.2

Now, please, on to the next molecule.
Reported CC50 at 120 h for CC[C@H](C)[C@H](NC(=O)c1ccccc1[Se][Se]c1ccccc1C(=O)N[C@H](C(=O)O)[C@@H](C)CC)C(=O)O was 164

###

# protocol.text: Cytotoxicity against human HUT78 cells assessed as reduction in cell viability after 5 days by MTT assay
# Assay type: cell-based
Recorded CC50 at 120 h by entry
Quick reminder: number only, in µM, skip the unit.

Some entries whose results are on file:
>>> print(df.to_string())
                            chemical_string  value_units  observed_value
0  O=C(O)CNC(=O)c1ccccc1[Se][Se]c1ccccc1C(=O)NCC(=O)O           µM             108
1  O=C(O)CC[C@H](NC(=O)c1ccccc1[Se][Se]c1ccccc1C(=O)N[C@@H](CCC(=O)O)C(=O)O)C(=O)O           µM             100

Now, please, on to the next molecule.
Reported CC50 at 120 h for NS(=O)(=O)c1ccc(NC(=O)c2ccccc2SSc2ccccc2C(=O)Nc2ccc(S(N)(=O)=O)cc2)cc1 was 18.4

###

# protocol.text: Selectivity index, ratio of CC50 for human HUT78 cells to EC50 for HIV1 3B
# Type: toxicity, cell-based
# cond: read-out: Ratio CC50/EC50
Recorded selectivity ratio by entry
Write the number on its own, no unit after it.

                            chemical_string  observed_value
0  NS(=O)(=O)c1ccc(NC(=O)c2ccccc2SSc2ccccc2C(=O)Nc2ccc(S(N)(=O)=O)cc2)cc1             6.9
1  O=C(O)CNC(=O)c1ccccc1[Se][Se]c1ccccc1C(=O)NCC(=O)O             7.8

Now, please, on to the next compound.
Reported selectivity ratio for O=C(O)CC[C@H](NC(=O)c1ccccc1[Se][Se]c1ccccc1C(=O)N[C@@H](CCC(=O)O)C(=O)O)C(=O)O was 6.5

###

# protocol.text: Selectivity index, ratio of CC50 for human MT4 cells to EC50 for NNRTI-resistant HIV1 RES056 harboring reverse transcriptase K103N/181C double mutant
# Type: toxicity, cell-based
# cond: read-out: Ratio CC50/EC50
Recorded selectivity ratio by entry
Write the number on its own, no unit after it.

Some entries whose results are on file:
                            chemical_string  observed_value
0  O=C(O)CC[C@H](NC(=O)c1ccccc1[Se][Se]c1ccccc1C(=O)N[C@@H](CCC(=O)O)C(=O)O)C(=O)O              29
1  O=C(O)CNC(=O)c1ccccc1[Se][Se]c1ccccc1C(=O)NCC(=O)O              33

Now, please, on to the next molecule.
Reported selectivity ratio for CC[C@H](C)[C@H](NC(=O)c1ccccc1[Se][Se]c1ccccc1C(=O)N[C@H](C(=O)O)[C@@H](C)CC)C(=O)O was 6

###

# protocol.text: Selectivity index, ratio of CC50 for human MT4 cells to EC50 for HIV-2 ROD
# Format: toxicity, cell-based
# cond: read-out: Ratio CC50/EC50
observation.type: selectivity ratio
Write the number on its own, no unit after it.

Some entries whose results are on file:
In [3]: df
Out[3]:
                            chemical_string   observation_type  observed_value
0  C[C@H](NC(=O)c1ccccc1[Se][Se]c1ccccc1C(=O)N[C@@H](C)C(=O)O)C(=O)O  selectivity ratio              26
1  CCOC(=O)CNC(=O)c1ccccc1[Se][Se]c1ccccc1C(=O)NCC(=O)OCC  selectivity ratio               9
2  COC(=O)[C@H](C)NC(=O)c1ccccc1[Se][Se]c1ccccc1C(=O)N[C@@H](C)C(=O)OC  selectivity ratio               8

Reported selectivity ratio for CC(C)[C@H](NC(=O)c1ccccc1[Se][Se]c1ccccc1C(=O)N[C@H](C(=O)O)C(C)C)C(=O)O was 9

Reported selectivity ratio for COC(=O)[C@@H]1CCCN1C(=O)c1ccccc1[Se][Se]c1ccccc1C(=O)N1CCC[C@H]1C(=O)OC was 2

Reported selectivity ratio for NS(=O)(=O)c1ccc(NC(=O)c2ccccc2[Se][Se]c2ccccc2C(=O)Nc2ccc(S(N)(=O)=O)cc2)cc1 was 6

Reported selectivity ratio for O=C(O)CC[C@H](NC(=O)c1ccccc1[Se][Se]c1ccccc1C(=O)N[C@@H](CCC(=O)O)C(=O)O)C(=O)O was 34

Reported selectivity ratio for CC[C@H](C)[C@H](NC(=O)c1ccccc1[Se][Se]c1ccccc1C(=O)N[C@H](C(=O)O)[C@@H](C)CC)C(=O)O was 13

Reported selectivity ratio for NS(=O)(=O)c1ccc(NC(=O)c2ccccc2SSc2ccccc2C(=O)Nc2ccc(S(N)(=O)=O)cc2)cc1 was 30

Reported selectivity ratio for O=C(O)CNC(=O)c1ccccc1[Se][Se]c1ccccc1C(=O)NCC(=O)O was 34

###

# Tested on: Human immunodeficiency virus 1
# protocol.text: Antiviral activity against ritonavir-resistant HIV1 3B/RIT infected in human MT4 cells
# Format: functional, organism-based
# cond: Human immunodeficiency virus 1, 3B/RIT
observation.type: pEC50
Remember the convention: pEC50 equals -log10 of concentration in molar.

Some entries whose results are on file:
                                   compound  observed_value
0  CC(C)c1nc(CN(C)C(=O)N[C@H](C(=O)N[C@@H](Cc2ccccc2)C[C@H](O)[C@H](Cc2ccccc2)NC(=O)OCc2cncs2)C(C)C)cs1 [RITONAVIR]            5.56
1  O=C(O)CC[C@H](NC(=O)c1ccccc1[Se][Se]c1ccccc1C(=O)N[C@@H](CCC(=O)O)C(=O)O)C(=O)O            5.27
2  CC[C@H](C)[C@H](NC(=O)c1ccccc1[Se][Se]c1ccccc1C(=O)N[C@H](C(=O)O)[C@@H](C)CC)C(=O)O            4.59

Reported pEC50 for O=C(O)CNC(=O)c1ccccc1[Se][Se]c1ccccc1C(=O)NCC(=O)O was 5.48

###

# protocol.text: Selectivity index, ratio of CC50 for human MT4 cells to EC50 for AZT-resistant HIV1 ADP/141 harboring reverse transcriptase D67N/K70R/T215F/K219Q mutant
# Type: toxicity, cell-based
# cond: read-out: Ratio CC50/EC50
observation.type: selectivity ratio

Some entries whose results are on file:
                            chemical_string  observed_value
0  CC[C@H](C)[C@H](NC(=O)c1ccccc1[Se][Se]c1ccccc1C(=O)N[C@H](C(=O)O)[C@@H](C)CC)C(=O)O              11
1  O=C(O)CNC(=O)c1ccccc1[Se][Se]c1ccccc1C(=O)NCC(=O)O              26

Reported selectivity ratio for O=C(O)CC[C@H](NC(=O)c1ccccc1[Se][Se]c1ccccc1C(=O)N[C@@H](CCC(=O)O)C(=O)O)C(=O)O was 38
